# Tested on: Escherichia coli TOP10
# Assay: shrunken log2 fold change of peptide-encoding DNA abundance (4.5 h post-induction vs induction); higher = less antimicrobial activity (less host growth inhibition)
# Cond: time post-induction: 4.5 h; library: site-saturation at positions 5, 18, 19, 20
Measurement name: shrunken log2 fold change
// no unit string in output, number only

These recorded examples may help you get a feel for the data.
[[record]]
entry_sequence = "RRIRKRPPRLPRPRPRPRAMPRP"
value = -0.107

[[record]]
entry_sequence = "RRIRIRPPRLPRPRPRPINCPRP"
value = -0.0883

[[record]]
entry_sequence = "RRIRPRPPRLPRPRPRPNAYPRP"
value = -0.0709

[[record]]
entry_sequence = "RRIRDRPPRLPRPRPRPTVTPRP"
value = 0.853


Req: What shrunken log2 fold change appears in the records for this sequence with Escherichia coli TOP10? RRIRHRPPRLPRPRPRPTCAPRP
Resp: 0.242

Req: Look up shrunken log2 fold change with Escherichia coli TOP10 for this sequence: RRIRVRPPRLPRPRPRPPYVPRP
Resp: -0.153

Req: Form: Entry = RRIRHRPPRLPRPRPRPHMYPRP | System = Escherichia coli TOP10 | shrunken log2 fold change = ____
Resp: -0.0666

Req: Recorded shrunken log2 fold change for RRIRGRPPRLPRPRPRPYRKPRP with Escherichia coli TOP10, please?
Resp: 0.176

Req: Tell me reported shrunken log2 fold change for RRIRFRPPRLPRPRPRPGMNPRP , tested with Escherichia coli TOP10.
Resp: -0.147

Req: Recorded shrunken log2 fold change for RRIRVRPPRLPRPRPRPSTMPRP with Escherichia coli TOP10, please?
Resp: -0.213

Req: Return shrunken log2 fold change measured with Escherichia coli TOP10 given this sequence: RRIRPRPPRLPRPRPRPMNGPRP
Resp: 0.137

Req: What is its shrunken log2 fold change for Escherichia coli TOP10? Entry: RRIRVRPPRLPRPRPRPYKMPRP
Resp: -0.428

Req: // lookup shrunken log2 fold change | system=Escherichia coli TOP10 | key= RRIRWRPPRLPRPRPRPGMWPRP
Resp: 0.729

Req: Escherichia coli TOP10 / shrunken log2 fold change / RRIRVRPPRLPRPRPRPKCCPRP : value?
Resp: -0.0953

Req: Request body: readout shrunken log2 fold change, system Escherichia coli TOP10, query RRIRFRPPRLPRPRPRPISGPRP . Return the value.
Resp: 0.00212

----------
# System: Escherichia coli TOP10;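 also: peptides expressed intracellularly from a pBAD plasmid library in pooled LB shake-flask culture, induced with 0.3% L-arabinose, DNA abundance read by NGS, three biological replicates, DESeq2 with apeglm shrinkage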
# Assay: shrunken log2 fold change of peptide-encoding DNA abundance (4.5 h post-induction vs induction); higher = less antimicrobial activity (less host growth inhibition)
# Cond: time post-induction: 4.5 h; library: site-saturation at positions 5, 18, 19, 20
Measurement name: shrunken log2 fold change
Please give the numeric answer without any surrounding text.

[[record]]
entry_sequence = "RRIRFRPPRLPRPRPRPAKMPRP"
test_target = "Escherichia coli TOP10"
value = 0.207

[[record]]
entry_sequence = "RRIRYRPPRLPRPRPRPIINPRP"
test_target = "Escherichia coli TOP10"
value = -0.099

[[record]]
entry_sequence = "RRIRGRPPRLPRPRPRPSCWPRP"
test_target = "Escherichia coli TOP10"
value = 0.413


Req: Data request, read-out shrunken log2 fold change, for RRIRPRPPRLPRPRPRPQNKPRP
Resp: -0.479

Req: // query shrunken log2 fold change value for entry RRIRERPPRLPRPRPRPYNEPRP
Resp: -0.178

Req: Find the recorded shrunken log2 fold change belonging to RRIRTRPPRLPRPRPRPKWFPRP and report it.
Resp: -0.0479

Req: What value of shrunken log2 fold change has been recorded for this entry: RRIRIRPPRLPRPRPRPIWPPRP
Resp: 0.155

Req: What value of shrunken log2 fold change has been reported for the following sequence? RRIRIRPPRLPRPRPRPLKIPRP
Resp: 1.44

Req: Which value of shrunken log2 fold change has been reported for RRIRTRPPRLPRPRPRPVCWPRP in the records?
Resp: 0.304

Req: Need shrunken log2 fold change, item RRIRGRPPRLPRPRPRPTKHPRP
Resp: 0.385

Req: For RRIRKRPPRLPRPRPRPCSHPRP , what is its reported shrunken log2 fold change?
Resp: 0.0663

Req: # query: shrunken log2 fold change of entry RRIRERPPRLPRPRPRPMTLPRP
Resp: -0.000163

Req: Which shrunken log2 fold change value is on record for RRIRTRPPRLPRPRPRPQHHPRP ?
Resp: -0.453

Req: Suppose we examine the sequence RRIRKRPPRLPRPRPRPGVLPRP ; what shrunken log2 fold change value has been reported?
Resp: 0.293

Req: Look at this sequence and give its reported shrunken log2 fold change. RRIRYRPPRLPRPRPRPWIRPRP
Resp: -0.371

Req: Name the recorded shrunken log2 fold change for RRIRHRPPRLPRPRPRPIRGPRP .
Resp: 0.0308
